- SUBJECT OF TEST: Recombinant human TRKC (Homo sapiens, UniProt Q16288)
- Sequence (Q16288 32-839): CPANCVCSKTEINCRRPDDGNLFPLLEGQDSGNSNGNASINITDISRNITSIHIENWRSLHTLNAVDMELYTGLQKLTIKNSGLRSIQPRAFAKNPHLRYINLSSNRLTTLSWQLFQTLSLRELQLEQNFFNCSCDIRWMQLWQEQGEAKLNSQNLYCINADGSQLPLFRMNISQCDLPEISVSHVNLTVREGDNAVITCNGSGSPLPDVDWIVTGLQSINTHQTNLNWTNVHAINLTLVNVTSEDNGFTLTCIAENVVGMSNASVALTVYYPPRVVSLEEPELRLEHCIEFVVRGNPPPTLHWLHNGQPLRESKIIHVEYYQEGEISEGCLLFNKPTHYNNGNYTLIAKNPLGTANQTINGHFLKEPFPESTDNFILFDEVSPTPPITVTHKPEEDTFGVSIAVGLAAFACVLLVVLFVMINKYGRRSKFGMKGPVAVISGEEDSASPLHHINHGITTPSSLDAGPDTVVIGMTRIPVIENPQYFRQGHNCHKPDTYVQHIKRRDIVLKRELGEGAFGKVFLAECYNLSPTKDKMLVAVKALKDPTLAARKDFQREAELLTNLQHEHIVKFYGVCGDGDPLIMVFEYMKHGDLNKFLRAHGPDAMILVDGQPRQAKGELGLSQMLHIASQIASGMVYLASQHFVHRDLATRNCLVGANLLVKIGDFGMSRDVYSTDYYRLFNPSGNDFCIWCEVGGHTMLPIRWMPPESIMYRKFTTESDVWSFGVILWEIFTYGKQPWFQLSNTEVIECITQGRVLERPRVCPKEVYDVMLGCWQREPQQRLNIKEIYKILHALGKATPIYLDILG
- ASSAY INFO: In vitro activity test on TRKC kinase (HTRF KinEASE TK)
- TEST CONDITIONS: 25.64 μM ATP, 40 min
MEASUREMENT LABEL: IC50

O=C(O)[C@H]1CCN(c2ncc(-c3ncnc4ccc(N5C[C@@H](F)C[C@@H]5c5cc(F)ccc5F)nc34)cn2)C1 | < 1 nM

IC50 for "O[C@H]1CCN(c2ccc(-c3c(Cl)cnc4ccc(N5C[C@@H](F)C[C@@H]5c5cc(F)ccc5F)nc34)cn2)C1" ?
< 10 nM

Which IC50 is listed for "Fc1ccc(F)c([C@H]2C[C@H](F)CN2c2ccc3ncc(Cl)c(-c4cnn(C5CNC5)c4)c3n2)c1" ?
< 1 nM

So what's the measured IC50 for this one? "NC(=O)c1ccnc2ccc(N3CCC[C@@H]3c3cc(F)ccc3F)nc12"
< 1 nM

Consider the molecule "O[C@H]1CCN(c2nc(-c3ncnc4ccc(N5C[C@@H](F)C[C@@H]5c5cc(F)ccc5F)nc34)no2)C1" and give its measured IC50.
< 10 nM

What does the data say about its IC50? Entry: "Fc1ccc(F)c([C@H]2CCCN2c2ccc3nccc(-c4cnn(C5CCNCC5)c4)c3n2)c1"
< 50 nM

I'd like to know its IC50. The molecule in question is "CS(=O)(=O)n1cc(-c2c(Cl)cnc3ccc(N4C[C@@H](F)C[C@@H]4c4cc(F)ccc4F)nc23)cn1"
< 1 nM

###

- SUBJECT OF TEST: Recombinant human TRKC (Homo sapiens, UniProt Q16288)
- ASSAY INFO: In vitro activity test on TRKC kinase (HTRF KinEASE TK)
- TEST CONDITIONS: 25.64 μM ATP, 40 min
MEASUREMENT LABEL: IC50

// known answers, use as guide
O=C(O)[C@@H]1CCN(c2ncc(-c3ncnc4ccc(N5C[C@@H](F)C[C@@H]5c5cc(F)ccc5F)nc34)cn2)C1 [Example 88] | < 1 nM
CN(C)S(=O)(=O)n1cc(-c2c(Cl)cnc3ccc(N4C[C@@H](F)C[C@@H]4c4cc(F)ccc4F)nc23)cn1 [Example 31] | < 10 nM
O[C@@H]1CCN(c2ccnc3ccc(N4CCC[C@@H]4c4cc(F)ccc4F)nc23)C1 [Example 3] | < 500 nM
O[C@H]1CCN(c2ncc(-c3ncnc4ccc(N5C[C@@H](F)C[C@@H]5c5cc(F)ccc5F)nc34)cn2)C1 [Example 72] | < 1 nM
Fc1ccc(F)c([C@H]2C[C@H](F)CN2c2ccc3ncc(Cl)c(-c4cnn(C5CCNCC5)c4)c3n2)c1 [Example 16] | < 1 nM

Entry O=S1(=O)CCC(n2cc(-c3c(Cl)cnc4ccc(N5C[C@@H](F)C[C@@H]5c5cc(F)ccc5F)nc34)cn2)CC1 [Example 47] : reported IC50 = ?
< 1 nM

Which IC50 reading was recorded for the compound N#Cc1cnc2ccc(N3C[C@@H](F)C[C@@H]3c3cc(F)ccc3F)nc2c1-c1cnn(C2CCNCC2)c1 [Example 36] ?
< 1 nM

Entry OCCN1CCC(n2cc(-c3c(Cl)cnc4ccc(N5C[C@@H](F)C[C@@H]5c5cc(F)ccc5F)nc34)cn2)CC1 [Example 32] has what IC50?
< 1 nM
